Parameter: Mean fluorescence intensity. Scope: all listed entries.
Biological target: T1, human LAG-3 (full length, on the cell surface) (human, UniProt P18627 23-525)
T1 construct: Full-length human LAG-3 expressed on cells; also called HEK293-hLAG-3; HEK293 cells transfected with LAG-3 gene
T1 sequence: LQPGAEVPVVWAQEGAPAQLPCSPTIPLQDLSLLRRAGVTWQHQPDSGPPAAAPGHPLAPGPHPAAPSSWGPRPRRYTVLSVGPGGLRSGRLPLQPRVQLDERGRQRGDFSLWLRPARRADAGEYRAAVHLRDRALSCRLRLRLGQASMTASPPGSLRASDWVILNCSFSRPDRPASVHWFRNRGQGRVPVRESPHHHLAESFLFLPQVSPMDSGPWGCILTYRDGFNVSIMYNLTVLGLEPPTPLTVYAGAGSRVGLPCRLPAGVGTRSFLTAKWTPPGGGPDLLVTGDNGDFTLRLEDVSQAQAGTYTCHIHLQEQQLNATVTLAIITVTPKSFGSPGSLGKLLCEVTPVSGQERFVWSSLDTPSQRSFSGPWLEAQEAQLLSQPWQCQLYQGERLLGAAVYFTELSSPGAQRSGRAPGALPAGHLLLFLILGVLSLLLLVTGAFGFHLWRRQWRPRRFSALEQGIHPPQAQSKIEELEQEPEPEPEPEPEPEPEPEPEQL
Assay: FACS, HEK293-hLAG-3; 0.000 nM
Description: The pIRES plasmid with the monkey-derived full-length gene was transfected into the HEK293 cell line to construct a HEK293 stable cell line containing monkey LAG-3 (herein referred to as HEK293-cLAG-3 stable cell line). […] After counted, the cells were diluted with HBSS to 1-2×10⁶ cells per ml, added with 1% goat serum blocking solution, incubated on ice for 20-30 minutes, and then washed with HBSS for 2 times by centrifugation. […]
Assay readout: Mean fluorescence intensity (MFI)

556F6B8 (mouse antibody purified from hybridoma) (antibody, V domains shown, also called mAb123-556F6B8) VH: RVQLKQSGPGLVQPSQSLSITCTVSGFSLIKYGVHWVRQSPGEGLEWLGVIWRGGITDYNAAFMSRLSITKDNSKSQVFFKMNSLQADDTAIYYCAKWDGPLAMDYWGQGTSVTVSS VL: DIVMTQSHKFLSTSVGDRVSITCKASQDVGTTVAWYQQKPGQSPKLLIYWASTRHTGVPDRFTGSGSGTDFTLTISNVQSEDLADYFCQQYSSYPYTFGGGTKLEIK
2.8
409D4E10 (mouse antibody purified from hybridoma) (antibody, V domains shown, also called mAb112-409D4E10) VH: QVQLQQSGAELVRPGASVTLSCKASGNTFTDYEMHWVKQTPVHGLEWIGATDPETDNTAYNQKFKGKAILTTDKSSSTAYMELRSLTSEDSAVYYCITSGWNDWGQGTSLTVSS VL: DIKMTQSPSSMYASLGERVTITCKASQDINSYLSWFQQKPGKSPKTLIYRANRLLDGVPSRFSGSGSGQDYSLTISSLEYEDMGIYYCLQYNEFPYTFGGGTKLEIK
2.8
409B11E12 (mouse antibody purified from hybridoma) (antibody, V domains shown, also called mAb104-409B11E12) VH: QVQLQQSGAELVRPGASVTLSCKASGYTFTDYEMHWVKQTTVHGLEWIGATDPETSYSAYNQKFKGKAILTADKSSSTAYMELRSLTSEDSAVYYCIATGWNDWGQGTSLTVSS VL: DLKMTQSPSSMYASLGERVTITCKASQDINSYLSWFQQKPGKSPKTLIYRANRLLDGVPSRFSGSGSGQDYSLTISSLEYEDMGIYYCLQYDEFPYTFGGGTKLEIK
2.5
405B8H3 (mouse antibody purified from hybridoma) (antibody, V domains shown, also called mAb103-405B8H3; 405B81-13) VH: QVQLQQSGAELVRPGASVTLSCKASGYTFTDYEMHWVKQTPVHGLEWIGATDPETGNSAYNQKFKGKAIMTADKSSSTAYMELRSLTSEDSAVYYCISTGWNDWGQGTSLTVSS VL: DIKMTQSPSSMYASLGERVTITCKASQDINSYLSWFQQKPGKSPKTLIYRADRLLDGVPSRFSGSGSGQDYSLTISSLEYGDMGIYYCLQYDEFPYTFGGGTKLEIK
3.7
